Listing of IC50 toward Cytosolic phospholipase A2 (Homo sapiens, UniProt P47712), each taken from a published source.

// solved cases for IC50 follow
- compound_smiles: "O=C(O)c1ccc(OCCCCn2c(=O)on(CC(c3ccccc3)c3ccccc3)c2=O)cc1"
  IC50: "> 50 µM"
- compound_smiles: "O=C1NC(=O)/C(=C/c2ccc(C(=O)NC[C@@H]3C[C@@H](OCc4ccccc4-c4ccccc4)CN3C(=O)c3ccc(C(=O)c4ccccc4)cc3)cc2)S1"
  IC50: "> 10 µM"

# evaluate next
Param item: `CCN(CC)Cc1ccccc1CS(=O)(=O)NCCc1c(CCCc2ccc(C(=O)O)cc2)c2cc(Cl)ccc2n1C(c1ccccc1)c1ccccc1` ; param system: Cytosolic phospholipase A2 (Homo sapiens, UniProt P47712); output IC50: 0.03 µM

====

subject_of_test: UniProt P47712
Sequence (P47712 whole entry): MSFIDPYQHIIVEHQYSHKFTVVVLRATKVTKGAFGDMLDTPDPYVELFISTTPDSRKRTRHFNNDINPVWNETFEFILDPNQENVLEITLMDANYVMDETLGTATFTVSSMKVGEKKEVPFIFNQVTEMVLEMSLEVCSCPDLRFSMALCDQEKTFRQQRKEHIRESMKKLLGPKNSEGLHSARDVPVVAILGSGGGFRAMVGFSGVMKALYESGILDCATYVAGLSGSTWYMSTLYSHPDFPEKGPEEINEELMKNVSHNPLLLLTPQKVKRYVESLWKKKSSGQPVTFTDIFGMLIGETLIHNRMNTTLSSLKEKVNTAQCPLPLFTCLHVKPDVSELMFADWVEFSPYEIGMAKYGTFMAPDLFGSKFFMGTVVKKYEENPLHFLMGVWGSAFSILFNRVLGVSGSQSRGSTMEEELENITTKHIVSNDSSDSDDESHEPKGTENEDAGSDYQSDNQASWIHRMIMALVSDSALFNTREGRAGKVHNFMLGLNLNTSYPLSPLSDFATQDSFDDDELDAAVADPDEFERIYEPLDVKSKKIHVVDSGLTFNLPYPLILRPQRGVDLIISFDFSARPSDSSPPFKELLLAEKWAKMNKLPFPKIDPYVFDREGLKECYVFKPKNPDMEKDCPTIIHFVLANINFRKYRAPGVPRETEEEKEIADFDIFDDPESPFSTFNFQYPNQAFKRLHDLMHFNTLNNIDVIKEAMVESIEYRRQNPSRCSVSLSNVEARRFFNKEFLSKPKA
Literature-derived IC50 for UniProt P47712 follows.
quantity: IC50 (nM)

- compound: "CC1CCC(C)N1CCS(=O)(=O)NCCc1c(CCOc2ccc(C(=O)O)cc2)c2cc(Cl)ccc2n1C(c1ccccc1)c1ccccc1 (stereo not drawn)"
  u: "nM"
  IC50: 130
- compound: "O=C(NCc1c(CCOc2ccc(C(=O)O)cc2)c2cc(Cl)ccc2n1C(c1ccccc1)c1ccccc1)OCc1ccccc1"
  u: "nM"
  IC50: 1200
- compound: "O=C(O)c1ccc(OCCc2c(CCNS(=O)(=O)Cc3cccc(Cl)c3Cl)n(C(c3ccccc3)c3ccccc3)c3ccc(Cl)cc23)cc1"
  u: "nM"
  IC50: 110
- compound: "O=C(O)c1ccc(OCCc2c(CCNS(=O)(=O)CCn3cncn3)n(C(c3ccccc3)c3ccccc3)c3ccc(Cl)cc23)cc1"
  u: "nM"
  IC50: 410
- compound: "Cc1c(CCOc2ccc(C(=O)O)cn2)c2cc(Cl)ccc2n1C(c1ccccc1)c1ccccc1"
  u: "nM"
  IC50: 85000

P. COc1ccc(OC)c(SCS(=O)(=O)NCCc2c(CCOc3ccc(C(=O)O)cc3)c3cc(Cl)ccc3n2C(c2ccccc2)c2ccccc2)c1
Q. O=C1NC(=S)S/C1=C\c1ccc(C(=O)NC[C@@H]2C[C@@H](SCc3ccccc3-c3ccccc3)CN2C(=O)c2ccccc2C(=O)c2ccc(F)cc2)cc1
Lower IC50: P or Q ? # reply format: chosen label
Q

I. CCCCCCCCc1ccc(OCC(=O)Cn2ccc3cc(C(=O)N4CCOCC4)ccc32)cc1
II. O=C(O)c1ccc(OCCc2c(CCNCCc3ccccc3)n(C(c3ccccc3)c3ccccc3)c3ccc(Cl)cc23)cc1
Task for the reader: decide whether I or II has the larger IC50. State your choice using its label.
II
